Listing: viability, T/C of selected molecules
- Test system: 463943-066-T-J2-PDC tumor spheroids with HUVEC/MSC, viability;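 also: spheroids exposed to drugs for seven days; 100% = DMSO vehicle control wells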
- method-summary: Anticancer human tumor 463943-066-T-J2-PDC patient-derived colon adenocarcinoma cell line growth inhibition [TAK]
- condition-context: second compound 9.49 µM; first compound 0.1 µM; stronger effect = lower value

{"molecule": "COC1CC2CCC(C)C(O)(O2)C(=O)C(=O)N2CCCCC2C(=O)OC(C(C)CC2CCC(OCCO)C(OC)C2)CC(=O)C(C)C=C(C)C(O)C(OC)C(=O)C(C)CC(C)C=CC=CC=C1C (stereo not drawn) + CC(C)NCC(C(=O)N1CCN(c2ncnc3c2C(C)CC3O)CC1)c1ccc(Cl)cc1", "assay-target": "463943-066-T-J2-PDC tumor spheroids with HUVEC/MSC, viability", "viability, T/C": "78.6%"}
{"molecule": "CC(C)n1nc(-c2ccc3oc(N)nc3c2)c2c(N)ncnc21 + CC(C)NCC(C(=O)N1CCN(c2ncnc3c2C(C)CC3O)CC1)c1ccc(Cl)cc1", "assay-target": "463943-066-T-J2-PDC tumor spheroids with HUVEC/MSC, viability", "viability, T/C": "74.1%"}
{"molecule": "CC(C)(C)c1nc(-c2cccc(NS(=O)(=O)c3c(F)cccc3F)c2F)c(-c2ccnc(N)n2)s1 + CC(C)NCC(C(=O)N1CCN(c2ncnc3c2C(C)CC3O)CC1)c1ccc(Cl)cc1", "assay-target": "463943-066-T-J2-PDC tumor spheroids with HUVEC/MSC, viability", "viability, T/C": "111%"}
